// provenance: the NIST ThermoML archive (doi:10.1016/j.jct.2012.12.025)

- Run description: cn = amount concentration of the nth substance listed, in mol/dm3
- Condition label: 298.15 K; 101 kPa; Liquid; Pycnometric method; c1 = 1
Give measured mass density for each item. Keep answers brief.
# value in kg/m3; strip the unit string

Look at this compound and give its reported mass density. F[P-](F)(F)(F)(F)F.[Li+] [lithium hexafluorophosphate] + COC(=O)OC 1140

Look at this compound and give its reported mass density. F[P-](F)(F)(F)(F)F.[Li+] [lithium hexafluorophosphate] + O=C1OCCO1 1400

Look at this compound and give its reported mass density. O=S(=O)([N-]S(=O)(=O)C(F)(F)F)C(F)(F)F.[Li+] [lithium bis((trifluoromethyl)sulfonyl)amide] + CCOC(=O)OCC 1100

Look at this compound and give its reported mass density. O=S(=O)([N-]S(=O)(=O)C(F)(F)F)C(F)(F)F.[Li+] [lithium bis((trifluoromethyl)sulfonyl)amide] + COC(=O)OC 1160

Look at this compound and give its reported mass density. O=S(=O)([N-]S(=O)(=O)C(F)(F)F)C(F)(F)F.[Li+] [lithium bis((trifluoromethyl)sulfonyl)amide] + O=C1OCCO1 1420

Look at this compound and give its reported mass density. F[P-](F)(F)(F)(F)F.[Li+] [lithium hexafluorophosphate] + CCOC(=O)OC 1090

Look at this compound and give its reported mass density. F[P-](F)(F)(F)(F)F.[Li+] [lithium hexafluorophosphate] + CCOC(=O)OCC 1050

###

- Condition label: 298.15 K; 101.33 kPa; Liquid; Pycnometric method
Give measured mass density for each item. Keep answers brief.
# value in kg/m3; strip the unit string

Look at this molecule and give its reported mass density. CCOC(=O)OC [ethyl methyl carbonate] 1010

Look at this molecule and give its reported mass density. CCOC(=O)OCC [diethyl carbonate] 970

Look at this molecule and give its reported mass density. COC(=O)OC [dimethyl carbonate] 1070

Look at this molecule and give its reported mass density. O=C1OCCO1 [ethylene carbonate] 1350
